- Tested on: SK-MEL-5 melanoma
- experiment_notes: NCI-60 one-dose screen, 48 h
- assay_context: 10 µM unless noted
Compounds without any hit were thinned out: in the full panel of roughly 83,000, 20% have a hit. Active and inactive are the calls of the source. The calls were made as follows: active = growth percent below 10; inactive = the rest.
Pick one and only one: active, inactive

Below, 5 compounds whose answers are already recorded.
[[record]]
compound = "O=C(c1ccccc1)C(CCc1ccccn1)CCc1ccccn1"
class_label = "inactive"

[[record]]
compound = "COc1cc(C2CC(c3ccc(Cl)cc3)=NN2C(C)=O)ccc1Oc1ccnc2cc(Cl)ccc12 (centres undefined)"
class_label = "inactive"

[[record]]
compound = "C=C(C)[C@@H]1CC[C@]2(C(=O)NS(=O)(=O)c3ccccc3)CC[C@]3(C)[C@H](CC[C@@H]4[C@@]5(C)CC[C@H](OC(=O)NS(=O)(=O)c6ccccc6)C(C)(C)[C@@H]5CC[C@]43C)[C@@H]12"
class_label = "active"

[[record]]
compound = "COc1cccc(N2CCN(c3ncnc4cc[nH]c34)CC2)c1"
class_label = "active"

[[record]]
compound = "O=C1c2cccc3cccc(c23)C(=O)N1CCCCCCCCCCN1C(=O)c2cccc3cccc(c23)C1=O"
class_label = "inactive"


-- ask Field: outcome | Entry: Clc1ccc(-c2cnc3nonc3n2)s1
-- reply inactive
